Assay: yeast display, Sf9 membrane polyspecificity reagent, FACS + sequencing; frameworks hold sequencing errors
Observed Property: polyreactivity (PSR sort gate)

Please review the entries below; each comes with its answer.
QVQLVESGGGLVQAGGSLRLSCAASGRTFKYYAMGWYRQAPGKERELVAGITGRGGGTYYADSVKGRFTISRDNAKNTVYLQMNSLKPEDTAVYYCAAERIYWKYYEYDYWGQGTEVTVSS :: high polyreactivity
QVQLVESGGGLVQAGGSLRLSCAASGSTFFTNAMGWYRQAPGKERELVAGISYGGGRTYYADSVKGRFTISLDNAKNTVYLQMNRLKPEDTAVYYCNTVTSQAPYYSYVSWGQGTQVTVSS :: high polyreactivity
QVQLVESGGGLVQAGGSLRLSCAAYGSTFPGYAMGWYRQAPGKERELVAAISASGGSTYYADSVKGRFTISRDNAKNTVYLQMISLIPEDTAVYFCAKVLSRGACADDYWGQGTQVTVSS :: low polyreactivity
QVQLVESGGGLVQAGGSLRLSCAASGRIFLRNDMGWYRQAPGKERELVAGISSDGSTYYADSVKGRFTISRDNAKNTVYLQMNSLKPEDTAVYYCAAERWGNPTDYQFWRPYDYWGQGTQVTVSS :: low polyreactivity
QVQIEDSGGGLVQAGGSLRLICAASGFTFINNDMGWYRQAPGKERELVAAISDSDGTTYYADSVKGRFTISRDNAKNTVYLQMNSLKPEDTEVYYCAADVVPTWEDEYWGQGTQVTVSS :: low polyreactivity
QVQLVESGGGLVQAGGSLRLSCAASGRICWYYGLGWYRQAPGKERELVAAITTGGSTYADSVKGRFTISRDNAKNTVYLQMNSLKPEDPAVYYCAADGSYVWRNGWTYFYWGQGTQVTVSS :: high polyreactivity

// lookup polyreactivity (PSR sort gate) for `QVQLVESGGRLVQAVGSLRLRCAPSGNTFPVYAMGWYRQASGKERELVATITSGGSTNYADSVKGRFTISRDNAKNTVYLQMNSLKPEDTAVYYCARRAVYSKRRYDYWGQGTQVTVSS`
low polyreactivity

Need polyreactivity (PSR sort gate) of `QVQLVESGGGLVQAGGSLRFSCAASGSTFVYNAMGWYRQAAGQERELVAVITYRGGRTYYADSVKGRFTISRDNAKNTVYLQINSLKPEDTAVYYCAAQTFRYRKKLDYWGQGTQVTVSS` , thanks.
high polyreactivity

Give its polyreactivity (PSR sort gate) value. Item: `QVQLVESGGGLVQAGGSLRLSCAASGRIRFYAMGWYIQAPGKERELVAAISSSGGSTYYADSVKGRFTISRDNAKNTVYLQMNSLKPEDTAVYYCAAAWYYLGTRAQLYDYWGQGTQVTVSS`
low polyreactivity

Which polyreactivity (PSR sort gate) reading was recorded for the sequence `QVQLVESGGRLVQAGGSLRLSCAASGFIFYSYDMGWYRQAPGKERELVAAIDSRGVNTYYADSVKGRFTISRDNAKNTVYLQMNSLKPEDTAVYYCAAEVVYPVYEYDYWGQGTQVTVSS` ?
low polyreactivity

Please report the recorded polyreactivity (PSR sort gate) for `QDQLVESGGGLVQAGGSLRLSCAASGSNFDRYTMGWYRQAPGKERELLAAITRRGGSTNYADSVKGRFTISRDNAKFTVYLQMISLKPEDTALYYCARATDLNDKPSWDEYWGQGTQVTVSS` .
high polyreactivity
